Test: chemical genetic growth profiling, strain panel (AID 1159580);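 note: tested at 20 µM; growth read once vehicle control cultures reached saturation at 30 °C; 1 = growth at the plate median or of vehicle wells; lower values mean less growth of the strain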
Conditions: S. cerevisiae deletion strains, growth OD, locus YJR075W, strain HOC1, hits give low values
About 2,000 (36%) of roughly 5,500 compounds were called active. Another 18% or so got no clear call; they are omitted. This is one part of the list.
QUANTITY: normalized growth

COMPOUND: N#Cc1ccc(Oc2ccc(Cl)cc2)nc1
QUANTITY: normalized growth
RESULT: 0.968 (inactive)
//
COMPOUND: CCCCOC(=O)NS(=O)(=O)c1sc(CC(C)C)cc1-c1ccc(Cn2c(CC)nc3c(C)cc(C)nc32)cc1
QUANTITY: normalized growth
RESULT: 0.999 (inactive)
//
COMPOUND: CCN(CC)C(=O)N[C@@H]1C=C2c3cccc4[nH]cc(c34)C[C@H]2N(C)C1
QUANTITY: normalized growth
RESULT: 0.983 (inactive)
//
COMPOUND: CCOC([O-])=Nc1c[n+](N2CCOCC2)no1
QUANTITY: normalized growth
RESULT: 1.01 (inactive)
//
COMPOUND: NCC(O)c1cc(O)c(O)cc1F (stereo not drawn)
QUANTITY: normalized growth
RESULT: 1.03 (inactive)
//
COMPOUND: COC(=O)[C@]1(C)CC[C@]2(C)CC[C@]3(C)C4=CC=C5C(=CC(=O)C(O)=C5C)[C@]4(C)CC[C@@]3(C)[C@@H]2C1
QUANTITY: normalized growth
RESULT: 0.794 (active)
//
COMPOUND: Cc1ccc(N=Nc2c(C)[nH]n(C)c2=O)cc1
QUANTITY: normalized growth
RESULT: 0.969 (inactive)
//
COMPOUND: OCCN1CCN(CC/C=C2/c3ccccc3Sc3ccc(C(F)(F)F)cc32)CC1
QUANTITY: normalized growth
RESULT: 0.942 (inactive)
//
COMPOUND: COc1ccc(C2C(=O)c3ccccc3C2=O)cc1
QUANTITY: normalized growth
RESULT: 0.983 (inactive)
//
COMPOUND: O=C(O)/C(=C/c1c(C(=O)O)[nH]c2cc(Cl)cc(Cl)c12)c1ccccc1
QUANTITY: normalized growth
RESULT: 0.988 (inactive)
//
COMPOUND: CCC(=O)Nc1cc(OC)cc(OC)c1
QUANTITY: normalized growth
RESULT: 0.98 (inactive)
//
COMPOUND: C[C@]12CCC(=O)C=C1CC[C@@H]1[C@@H]2CC[C@@]2(C)[C@H]1CC[C@]2(O)C(=O)CO
QUANTITY: normalized growth
RESULT: 1 (inactive)
//
COMPOUND: CC(=O)[C@@]1(O)CC[C@H]2[C@@H]3CCC4=CC(=O)CC[C@]4(C)[C@H]3CC[C@@]21C
QUANTITY: normalized growth
RESULT: 0.984 (inactive)
//
COMPOUND: Cc1[nH]n(C)c(=O)c1N=Nc1ccc(Cl)cc1
QUANTITY: normalized growth
RESULT: 0.912 (inactive)
//
COMPOUND: Cc1ccc(N(CC2=NCCN2)c2cccc(O)c2)cc1
QUANTITY: normalized growth
RESULT: 0.967 (inactive)
//
COMPOUND: OC(CSc1ccccc1)CN1CCN(c2ccc(C(F)(F)F)cn2)CC1 (stereo not drawn)
QUANTITY: normalized growth
RESULT: 1 (inactive)
//
COMPOUND: O=C(Nc1cccnc1)c1cccc(Cl)c1Cl
QUANTITY: normalized growth
RESULT: 0.991 (inactive)
//
COMPOUND: C=C(C)[C@@H]1CC[C@]2(CO)CC[C@]3(C)[C@H](CCC4[C@@]5(C)CC[C@H](O)C(C)(C)C5CC[C@]43C)C12 (stereo partly drawn)
QUANTITY: normalized growth
RESULT: 1.01 (inactive)
//
COMPOUND: Cc1cc(C(C)(C)C)c(O)c(C)c1CC1=NCCN1
QUANTITY: normalized growth
RESULT: 0.995 (inactive)
//
COMPOUND: O=C(O)c1cc(=O)c2cccc(O)c2[nH]1
QUANTITY: normalized growth
RESULT: 0.974 (inactive)
//
COMPOUND: CN(C)S(=O)(=O)c1ccc2c(c1)/C(=C/c1cc3c([nH]1)CCCC3)C(=O)N2
QUANTITY: normalized growth
RESULT: 1.01 (inactive)
//
COMPOUND: NC(Cc1cc(O)c(O)cc1O)C(=O)O (stereo not drawn)
QUANTITY: normalized growth
RESULT: 0.956 (inactive)
//
COMPOUND: N#Cc1nccnc1Sc1ccc(Cl)cc1
QUANTITY: normalized growth
RESULT: 0.986 (inactive)
